- measured-target: tankyrase 2 (His6-TNKS2) (Homo sapiens)
- Sequence (Q9H2K2 934-1166): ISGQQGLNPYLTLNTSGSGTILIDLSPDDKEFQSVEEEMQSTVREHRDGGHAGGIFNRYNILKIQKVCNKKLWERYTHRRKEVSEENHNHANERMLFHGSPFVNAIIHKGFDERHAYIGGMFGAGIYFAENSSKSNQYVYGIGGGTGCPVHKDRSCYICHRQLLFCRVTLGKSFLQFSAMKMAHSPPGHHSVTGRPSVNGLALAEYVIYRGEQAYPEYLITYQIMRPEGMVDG
Structures can show the parent of a compound that is named as a salt.
Response field label: string, one of yes (1) (IC50 strictly below 40 nM) or no (0).

>>> label_class("Cc1cccc2c(=O)[nH]c3c(c12)COC(C(C)(C)O)C3 (racemic)")
"yes (1)"
>>> label_class("CC(C)C1Cc2[nH]c(=O)c3ccc(C(N)=O)cc3c2CO1 (racemic)")
"no (0)"
>>> label_class("O=c1[nH]c2c(c3ccccc13)COC(C1CCNC1)C2 (centres unmarked) [Compound I-36, hydrochloride]")
"no (0)"
>>> label_class("O=c1[nH]c2c(c3ccccc13)COCC2")
"no (0)"
>>> label_class("O=c1[nH]c2c(c3ccccc13)CO[C@H](C1CCCC1)C2 (single isomer, unassigned)")
"no (0)"
>>> label_class("O=C(C1CCOCC1)N1CCC(C2Cc3[nH]c(=O)c4ccccc4c3CO2)CC1 (racemic)")
"no (0)"
>>> label_class("CC(=O)N1CCC(C2Cc3[nH]c(=O)c4ccccc4c3CO2)C1 (centres unmarked)")
"no (0)"
>>> label_class("Cc1cccc2c(=O)[nH]c3c(c12)COC(C1CCOCC1)C3 (racemic)")
"yes (1)"
>>> label_class("Cc1cccc2c(=O)[nH]c3c(c12)COC(C(C)(C)COCc1ccccc1)C3 (centres unmarked)")
"yes (1)"
>>> label_class("O=c1[nH]c2c(c3ccccc13)COC(C1CCNCC1)C2 (racemic) [Compound I-22, trifluoroacetate]")
"no (0)"
>>> label_class("O=c1[nH]c2c(c3ccccc13)COC(C1CCCC1)C2 (racemic)")
"no (0)"
>>> label_class("O=c1[nH]c2c(c3ccccc13)COC1(CCCC1)C2")
"no (0)"
>>> label_class("CC(C)(C)C1Cc2[nH]c(=O)c3sccc3c2CO1 (racemic)")
"yes (1)"
>>> label_class("CC(C)C1Cc2[nH]c(=O)c3sccc3c2CO1 (racemic)")
"no (0)"
>>> label_class("CC1(C(=O)N2CCC(C3Cc4[nH]c(=O)c5cccnc5c4CO3)CC2)CC1 (racemic)")
"no (0)"
>>> label_class("O=C(C1CC1)N1CCC(C2Cc3[nH]c(=O)c4ccccc4c3CO2)CC1 (racemic)")
"no (0)"

====

Target or system Tankyrase 1 (TNKS1) (Homo sapiens, UniProt O95271); recorded quantity IC50.
endpoint-name: IC50 (nM)

>>> reported_result("CC(C)(C)OC(=O)N1CCC(C2Cc3[nH]c(=O)c4ccccc4c3CO2)CC1 (racemic)")
33.5
>>> reported_result("CC(C)(COCc1ccccc1)C1Cc2[nH]c(=O)c3ccccc3c2CO1 (racemic)")
67.2
>>> reported_result("O=c1[nH]c2c(c3ccccc13)COC1(CCCC1)C2")
72.9
>>> reported_result("O=c1[nH]c2c(c3ccccc13)COC(CCc1ccccc1)C2 (racemic)")
40.8
>>> reported_result("CC(C)C1Cc2[nH]c(=O)c3ccc(Cl)cc3c2CO1 (racemic)")
39.1
>>> reported_result("O=c1[nH]c2c(c3ccccc13)COC(C1CCOC1)C2 (mixture of isomers)")
33.6
>>> reported_result("O=c1[nH]c2c(c3ccccc13)COCC2")
421
>>> reported_result("CC1(C(=O)N2CCC(C3Cc4[nH]c(=O)c5cccnc5c4CO3)CC2)CC1 (racemic)")
40.2
